# Test system: 653999-131-R-J2-PDC complex spheroids, growth inhibition;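 further: spheroids exposed to the agents for seven days before the readout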
# experimentalProtocol: Anticancer human tumor 653999-131-R-J2-PDC patient-derived lung adenocarcinoma cell line growth inhibition [RAS]
# measurementConditions: second compound 0.00949 µM; first compound 0.0316 µM; active compounds read low
Give measured viability, T/C for each item. Keep answers brief.
Answers are plain numbers, in %.

CCN1CCN(Cc2ccc(Nc3ncc(F)c(-c4cc(F)c5nc(C)n(C(C)C)c5c4)n3)nc2)CC1 + CCn1c(-c2cc(N3CCN(C)CC3)cnc2C(C)OC)c2c3cc(ccc31)-c1csc(n1)CC(NC(=O)C1CC1C)C(=O)N1CCCC(N1)C(=O)OCC(C)(C)C2    37
Nc1ccn(C2OC(CO)C(O)C2(F)F)c(=O)n1 (centres undefined) + CCn1c(-c2cccnc2C(C)OC)c2c3cc(ccc31)N1CCOC(CC(NC(=O)C(C(C)C)N(C)C(=O)C3(F)CCN(C(=O)C#CC(C)(C)N(C)C)CC3)C(=O)N3CCCC(N3)C(=O)OCC(C)(C)C2)C1    59.7
NC1c2ccccc2OC12CCN(c1cnc3c(N4CCCc5ncccc54)n[nH]c3n1)CC2 (centres undefined) + CCn1c(-c2cc(N3CCN(C)CC3)cnc2C(C)OC)c2c3cc(ccc31)-c1csc(n1)CC(NC(=O)C1CC1C)C(=O)N1CCCC(N1)C(=O)OCC(C)(C)C2    40.9

Then there is this molecule:
Documented viability, T/C of CCC(CC)c1cc(NC2CCC(N)C2)n2nccc2n1 (centres undefined) + CCn1c(-c2cc(N3CCN(C)CC3)cnc2C(C)OC)c2c3cc(ccc31)-c1csc(n1)CC(NC(=O)C1CC1C)C(=O)N1CCCC(N1)C(=O)OCC(C)(C)C2 : 55.8
